- study.system: human P2X7 (Homo sapiens)
- Construct: 1321N1 cells stably expressing the full length human P2X7 gene (1321N1-hP2X7)
- protocol.description: Intracellular Calcium Flux (FLIPR) Assay
- Assay type: cell-based
- setup.conditions: 1321N1 cells stably expressing full length human P2X7; agonist 100 μM BzATP; fluo-3 calcium flux; read-out: FLIPR pIC50 hP2X7-1321n1 (converted)
IC50 by entry:

>  <compound>
CS(=O)(=O)c1cccc(C(Cc2ccc(F)cc2)C(=O)Nc2nc3ccccc3o2)c1 (stereo not shown)

>  <study.system>
human P2X7 (Homo sapiens)

>  <value.type>
IC50

>  <obs.value>
741 nM

$$$$
>  <compound>
O=C(Nc1nc2ccccc2o1)C(Cc1ccc(F)cc1)c1ccncc1 (stereo not shown)

>  <study.system>
human P2X7 (Homo sapiens)

>  <value.type>
IC50

>  <obs.value>
30.9 nM

$$$$
>  <compound>
Cc1ccc2nc(NC(=O)C(Cc3ccc(F)cc3)c3ccc(S(C)(=O)=O)cc3)oc2c1 (stereo not shown)

>  <study.system>
human P2X7 (Homo sapiens)

>  <value.type>
IC50

>  <obs.value>
191 nM

$$$$
>  <compound>
CS(=O)(=O)c1ccc(C(Cc2ccccc2)C(=O)Nc2nc3ccccc3o2)cc1 (stereo not shown)

>  <study.system>
human P2X7 (Homo sapiens)

>  <value.type>
IC50

>  <obs.value>
81.3 nM

$$$$
>  <compound>
COc1ccc2oc(NC(=O)C(Cc3ccc(F)cc3)c3ccc(S(C)(=O)=O)cc3)nc2c1 (stereo not shown)

>  <study.system>
human P2X7 (Homo sapiens)

>  <value.type>
IC50

>  <obs.value>
75.9 nM

$$$$
>  <compound>
CN(Cc1ccccc1)Cc1cnc(NC(=O)C(Cc2ccc(F)cc2)c2ccc(S(C)(=O)=O)cc2)cn1 (stereo not shown)

>  <study.system>
human P2X7 (Homo sapiens)

>  <value.type>
IC50

>  <obs.value>
1050 nM

$$$$

Give the reported IC50 for CS(=O)(=O)c1ccc(C(Cc2ccc(F)cc2)C(=O)Nc2nc3ccccc3o2)cc1 (stereo not shown) (system: human P2X7 (Homo sapiens)). 63.1 nM

Give the reported IC50 for CS(=O)(=O)c1ccc(C(Cc2ccc(F)cc2)C(=O)Nc2nc3ncccc3o2)cc1 (stereo not shown) (system: human P2X7 (Homo sapiens)). 234 nM

Give the reported IC50 for Cc1ccccc1C[C@H](C(=O)Nc1nc2ccccc2o1)c1ccc(S(C)(=O)=O)cc1 (system: human P2X7 (Homo sapiens)). 427 nM

Give the reported IC50 for CS(=O)(=O)c1ccc(C(Cc2ccc(F)cc2)C(=O)Nc2nc3cc(Cl)ccc3o2)cc1 (stereo not shown) (system: human P2X7 (Homo sapiens)). 126 nM

Give the reported IC50 for CS(=O)(=O)c1ccc(C(Cc2ccc(F)cc2)C(=O)Nc2nc3cc(C(F)(F)F)ccc3o2)cc1 (stereo not shown) (system: human P2X7 (Homo sapiens)). 115 nM

Give the reported IC50 for CS(=O)(=O)c1ccc(C(Cc2ccccc2F)C(=O)Nc2nc3ccccc3o2)cc1 (stereo not shown) (system: human P2X7 (Homo sapiens)). 87.1 nM

Give the reported IC50 for CC(=O)OCc1cnc(NC(=O)C(Cc2ccc(F)cc2)c2ccc(S(C)(=O)=O)cc2)cn1 (stereo not shown) (system: human P2X7 (Homo sapiens)). 871 nM

Give the reported IC50 for CS(=O)(=O)c1ccc([C@H](Cc2ccc(F)cc2)C(=O)Nc2cnc(CO)cn2)cc1 [Compound I-50b] (system: human P2X7 (Homo sapiens)). > 10000 nM

Give the reported IC50 for Cc1ccccc1C[C@@H](C(=O)Nc1nc2ccccc2o1)c1ccc(S(C)(=O)=O)cc1 (system: human P2X7 (Homo sapiens)). 81.3 nM

Give the reported IC50 for CS(=O)(=O)c1ccc(C(Cc2cccc(F)c2)C(=O)Nc2cnc(CO)cn2)cc1 (stereo not shown) (system: human P2X7 (Homo sapiens)). 339 nM

====

- study.system: human P2X7 (Homo sapiens, UniProt Q99572)
- Construct: 1321N1 cells stably expressing the full length human P2X7 gene (1321N1-hP2X7)
- protocol.description: Intracellular Calcium Flux (FLIPR) Assay
- Assay type: cell-based
- setup.conditions: 1321N1 cells stably expressing full length human P2X7; agonist 100 μM BzATP; fluo-3 calcium flux; read-out: FLIPR pIC50 hP2X7-1321n1 (converted)
- Procedure: Stock solutions of compounds were prepared from powders as a 10 mM DMSO stock solution. These solutions were stored at RT during the two week period of these experiments to prevent freeze-thaw of the DMSO stocks. The DMSO stocks were added to the appropriate assay buffer at a concentration of 10 μM, and then diluted serially to the final concentrations that were tested. No observable precipitate was formed at any time during this process. […]
IC50 by entry:
Express the result in nM but write the number alone.

>  <compound>
COC(=O)c1ccc2nc(NC(=O)C(Cc3ccc(F)cc3)c3ccc(S(C)(=O)=O)cc3)oc2c1 (stereo not shown)

>  <study.system>
human P2X7 (Homo sapiens, UniProt Q99572)

>  <value.type>
IC50

>  <obs.value>
617

$$$$

Please give the measured IC50 for this compound: CS(=O)(=O)c1ccc(C(Cc2ccc(F)cc2)C(=O)Nc2nc3cc(F)ccc3o2)cc1 (stereo not shown) 44.7

Please give the measured IC50 for this compound: CCOC(=O)c1ccc(C(Cc2ccc(F)cc2)C(=O)Nc2nc3ccccc3o2)cc1 (stereo not shown) 457

Please give the measured IC50 for this compound: CS(=O)(=O)c1ccc(C(Cc2ccc(F)cc2Cl)C(=O)Nc2nc3ccccc3o2)cc1 (stereo not shown) 794

====

- study.system: human P2X7 (Homo sapiens, UniProt Q99572)
- Construct: 1321N1 cells stably expressing the full length human P2X7 gene (1321N1-hP2X7)
- Sequence (Q99572 1-595): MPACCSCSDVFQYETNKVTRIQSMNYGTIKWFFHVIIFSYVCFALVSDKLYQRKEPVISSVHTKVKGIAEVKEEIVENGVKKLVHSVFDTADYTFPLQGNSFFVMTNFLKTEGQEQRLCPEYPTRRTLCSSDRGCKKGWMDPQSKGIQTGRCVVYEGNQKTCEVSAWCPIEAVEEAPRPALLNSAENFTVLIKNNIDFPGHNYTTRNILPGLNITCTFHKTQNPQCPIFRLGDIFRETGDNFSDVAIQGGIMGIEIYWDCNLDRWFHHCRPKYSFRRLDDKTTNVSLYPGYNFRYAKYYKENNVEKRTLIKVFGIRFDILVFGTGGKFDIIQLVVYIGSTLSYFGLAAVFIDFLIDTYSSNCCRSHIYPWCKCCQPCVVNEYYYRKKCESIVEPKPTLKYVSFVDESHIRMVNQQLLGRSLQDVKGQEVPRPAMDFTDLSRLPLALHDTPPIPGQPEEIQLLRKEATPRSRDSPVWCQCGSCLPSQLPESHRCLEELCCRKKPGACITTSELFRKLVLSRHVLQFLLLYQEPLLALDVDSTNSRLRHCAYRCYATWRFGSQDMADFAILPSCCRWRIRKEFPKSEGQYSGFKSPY
- protocol.description: Intracellular Calcium Flux (FLIPR) Assay
- Format: cell-based
- setup.conditions: 1321N1 cells stably expressing full length human P2X7; agonist 100 μM BzATP; fluo-3 calcium flux; read-out: FLIPR pIC50 hP2X7-1321n1 (converted)
IC50 by entry:
Express the result in µM but write the number alone.

Example results:
>  <molecule>
Cc1cc(C)c2oc(NC(=O)C(Cc3ccc(F)cc3)c3ccc(S(C)(=O)=O)cc3)nc2c1 (centres unmarked) [Compound I-43]

>  <value.type>
IC50

>  <unit.descriptor>
µM

>  <obs.value>
0.102

$$$$
>  <molecule>
COc1ccc(CC(C(=O)Nc2nc3ccccc3o2)c2ccc(S(C)(=O)=O)cc2)cc1 (centres unmarked) [Compound I-9]

>  <value.type>
IC50

>  <unit.descriptor>
µM

>  <obs.value>
0.229

$$$$
>  <molecule>
CCOC(=O)c1cnc(NC(=O)C(Cc2ccc(F)cc2)c2ccc(S(C)(=O)=O)cc2)cn1 (centres unmarked) [Compound I-15]

>  <value.type>
IC50

>  <unit.descriptor>
µM

>  <obs.value>
0.224

$$$$

Please give the measured IC50 for this molecule: CS(=O)(=O)c1ccc([C@@H](Cc2ccc(F)cc2)C(=O)Nc2cnc(CO)cn2)cc1 [Compound I-50a] 0.38

====

melting point by entry:

>  <molecule>
CS(=O)(=O)c1ccc(C(Cc2ccc(F)cc2)C(=O)Nc2nc3ccc(CO)cc3o2)cc1 (stereo not shown) [Compound I-20]

>  <obs.value>
128 to 130 °C

$$$$

Please give the measured melting point for this molecule: Cc1ccccc1CC(C(=O)Nc1cnc(Br)cn1)c1ccc(S(C)(=O)=O)cc1 (stereo not shown) [Compound I-1] 193.5 to 194.8 °C

Please give the measured melting point for this molecule: CC(C)(O)c1ccc(C(Cc2ccc(F)cc2)C(=O)Nc2nc3ccccc3o2)cc1 (stereo not shown) [Compound I-31] 87 to 90 °C

Please give the measured melting point for this molecule: CSc1cnc(NC(=O)C(Cc2ccc(F)cc2)c2ccc(S(C)(=O)=O)cc2)cn1 (stereo not shown) [Compound I-14] 187.7 to 188.4 °C

Please give the measured melting point for this molecule: CS(=O)(=O)c1ccc(C(Cc2ccc(F)cc2)C(=O)Nc2nc3ncccc3o2)cc1 (stereo not shown) [Compound I-18] 261 to 263.7 °C

Please give the measured melting point for this molecule: Cc1cnc(NC(=O)C(Cc2ccc(F)cc2)c2ccc(S(C)(=O)=O)cc2)cn1 (stereo not shown) [Compound I-19] 172.4 to 175.3 °C

Please give the measured melting point for this molecule: CCOCc1cnc(NC(=O)C(Cc2ccc(F)cc2)c2ccc(S(C)(=O)=O)cc2)cn1 (stereo not shown) [Compound I-22] 99 to 100 °C

Please give the measured melting point for this molecule: CS(=O)(=O)c1ccc(C(Cc2ccc(F)cc2)C(=O)Nc2nc3ccccc3o2)cc1 (stereo not shown) [Compound I-7] 109 to 110 °C

Please give the measured melting point for this molecule: CS(=O)(=O)c1ccc(C(Cc2ccccc2Cl)C(=O)Nc2nc3ccccc3o2)cc1 (stereo not shown) [Compound I-5] 107 to 108 °C

Please give the measured melting point for this molecule: COc1ccc(CC(C(=O)Nc2nc3ccccc3o2)c2ccc(S(C)(=O)=O)cc2)cc1 (stereo not shown) [Compound I-9] 101.9 to 105.9 °C
